// reported Selectivity ratio α1B vs α1D for each item listed
Target: full-length human α1D-adrenoceptor (Homo sapiens, UniProt P25100)
Sequence (P25100 whole entry): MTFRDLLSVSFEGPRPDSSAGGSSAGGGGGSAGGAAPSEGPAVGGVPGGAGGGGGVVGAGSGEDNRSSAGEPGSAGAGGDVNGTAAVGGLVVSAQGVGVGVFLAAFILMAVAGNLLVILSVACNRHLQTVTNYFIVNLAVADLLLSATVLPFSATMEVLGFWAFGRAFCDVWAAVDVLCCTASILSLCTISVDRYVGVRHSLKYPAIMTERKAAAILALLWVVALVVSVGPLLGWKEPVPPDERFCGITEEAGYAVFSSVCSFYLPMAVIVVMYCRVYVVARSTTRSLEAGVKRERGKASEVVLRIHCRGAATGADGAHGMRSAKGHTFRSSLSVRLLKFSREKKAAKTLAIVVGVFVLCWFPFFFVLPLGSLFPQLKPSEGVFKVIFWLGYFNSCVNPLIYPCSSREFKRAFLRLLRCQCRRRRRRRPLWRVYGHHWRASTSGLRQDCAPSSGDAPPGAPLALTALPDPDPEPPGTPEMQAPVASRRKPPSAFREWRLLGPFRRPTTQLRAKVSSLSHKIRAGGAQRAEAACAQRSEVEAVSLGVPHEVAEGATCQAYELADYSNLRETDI
Test: [3H]prazosin whole-cell competition binding, CHO-α1D cells
Conditions: ratio of KD values; higher α1D affinity (site 1 KD)
Readout Type: Selectivity ratio α1B vs α1D (fold)

{"Compound": "CCN1CCCC1CNC(=O)c1cc(S(N)(=O)=O)ccc1OC (stereo not shown) [Sulpiride]", "Assayed Target": "full-length human α1D-adrenoceptor (Homo sapiens, UniProt P25100)", "Op": ">", "Observed Result": 4.6}
{"Compound": "CC(C)(C)NCC(O)COc1cccc2[nH]c(C#N)cc12 (stereo not shown) [Cyanopindolol]", "Assayed Target": "full-length human α1D-adrenoceptor (Homo sapiens, UniProt P25100)", "Op": "=", "Observed Result": 3.1}
{"Compound": "CN1CC[C@]2(CCN3CCc4c(oc5ccccc45)[C@@H]3C2)N(C)C1=O.Cl [MK‐912]", "Assayed Target": "full-length human α1D-adrenoceptor (Homo sapiens, UniProt P25100)", "Op": "=", "Observed Result": 69}
{"Compound": "CN(C)CC/C=C1\\c2ccccc2CSc2ccccc21 [Dosulepin]", "Assayed Target": "full-length human α1D-adrenoceptor (Homo sapiens, UniProt P25100)", "Op": "=", "Observed Result": 2.0}
{"Compound": "ClCCN(Cc1ccccc1)Cc1ccccc1 [Dibenamine]", "Assayed Target": "full-length human α1D-adrenoceptor (Homo sapiens, UniProt P25100)", "Op": "=", "Observed Result": 6.3}
{"Compound": "CC(C)NCC(O)COc1cccc2[nH]c3ccccc3c12 (stereo not shown) [Carazolol]", "Assayed Target": "full-length human α1D-adrenoceptor (Homo sapiens, UniProt P25100)", "Op": "=", "Observed Result": 2.3}
{"Compound": "CC1c2ccccc2CN1CC1=NCCN1 (stereo not shown) [BRL44408]", "Assayed Target": "full-length human α1D-adrenoceptor (Homo sapiens, UniProt P25100)", "Op": "=", "Observed Result": 2.4}
{"Compound": "Cc1ccc(OCC(O)C(C)NC(C)C)c2c1CCC2 (stereo not shown) [ICI118551]", "Assayed Target": "full-length human α1D-adrenoceptor (Homo sapiens, UniProt P25100)", "Op": "=", "Observed Result": 5.8}
{"Compound": "COc1cccc2c1CCC[C@H]2CN(C)CCc1ccc2ccoc2c1.CS(=O)(=O)O [A80426]", "Assayed Target": "full-length human α1D-adrenoceptor (Homo sapiens, UniProt P25100)", "Op": "=", "Observed Result": 1.0}
{"Compound": "CC(C)(C)NCC(O)COc1cccc2[nH]c(=O)[nH]c12 (stereo not shown) [CGP12177]", "Assayed Target": "full-length human α1D-adrenoceptor (Homo sapiens, UniProt P25100)", "Op": ">", "Observed Result": 1.6}

----------
Target: full-length human α1D-adrenoceptor (Homo sapiens)
Test: [3H]prazosin whole-cell competition binding, CHO-α1D cells
Details: Log KD α1D site 1, high-affinity component of two-component curve; control; used for selectivity
Readout Type: Kd (nM)

{"Compound": "O=C1NCN(c2ccccc2)C12CCN(CC1COc3ccccc3O1)CC2 (stereo not shown) [Spiroxatrine]", "Readout Type": "Kd", "Observed Result": 13.8}
{"Compound": "OCCN1CCN(CCCN2c3ccccc3Sc3ccc(Cl)cc32)CC1 [Perphenazine]", "Readout Type": "Kd", "Observed Result": 13.8}
{"Compound": "CC(C(O)c1ccc(O)cc1)N1CCC(Cc2ccccc2)CC1 (stereo not shown) [Ifenprodil]", "Readout Type": "Kd", "Observed Result": 7.59}
{"Compound": "Cc1nc2n(c(=O)c1CCN1CCC(c3noc4cc(F)ccc34)CC1)CCCC2O (stereo not shown) [Paliperidone]", "Readout Type": "Kd", "Observed Result": 33.9}
{"Compound": "CCOc1ccccc1OCCN[C@H](C)Cc1ccc(OC)c(S(N)(=O)=O)c1 [Tamsulosin]", "Readout Type": "Kd", "Observed Result": 0.661}
{"Compound": "COc1cc2nc(N3CCN(C(=O)c4ccco4)[C@H]4CCCC[C@H]43)nc(N)c2cc1OC (racemic) [Cyclazosin]", "Readout Type": "Kd", "Observed Result": 0.135}
{"Compound": "O=C1[C@@H]2[C@H]3CC[C@H](C3)[C@@H]2C(=O)N1C[C@@H]1CCCC[C@H]1CN1CCN(c2nsc3ccccc23)CC1 [Lurasidone]", "Readout Type": "Kd", "Observed Result": 6.46}
